- Assay notes: Drug metabolism in mouse liver hepatocytes at 1 uM after 60 mins in presence of NADPH by HPLC-MS/MS analysis
- Type: ADME, cell-based, Hepatocyte
- Conditions used: read-out: Drug metabolism
Can you tell me metabolised at 1 h, 1 µM for the items I'm about to list?
# output: bare number, implied unit %

For the compound `C[C@]1(c2cc(NC(=O)c3ccc(C#N)cn3)ccc2F)N=C(N)CO[C@@H]1F` , report metabolised at 1 h, 1 µM.
0

Quick one: give measured metabolised at 1 h, 1 µM for `C[C@]1(c2cc(NC(=O)c3ncc(C#N)cc3Cl)ccc2F)N=C(N)CO[C@@H]1F`
55

====

- Assay notes: AUC (0 to infinity) in Swiss mouse at 10 mg/kg, po administered as bolus dose by LC-MS/MS analysis
- Format: ADME, organism-based
- Design: dose 10 mg/kg, time infinity, route oral
- Conditions used: in vivo
Property: AUC(0-inf) (ng·h/mL)
Just the number in ng·h/mL, nothing appended.

Give the value of AUC(0-inf) reported for the following: `C[C@]1(c2cc(NC(=O)c3ccc(C#N)cn3)ccc2F)N=C(N)CO[C@H]1C(F)(F)F`
1330

====

- Target desc: Cytochrome P450 2C19 (Homo sapiens, UniProt P33261)
- Sequence (P33261 whole entry): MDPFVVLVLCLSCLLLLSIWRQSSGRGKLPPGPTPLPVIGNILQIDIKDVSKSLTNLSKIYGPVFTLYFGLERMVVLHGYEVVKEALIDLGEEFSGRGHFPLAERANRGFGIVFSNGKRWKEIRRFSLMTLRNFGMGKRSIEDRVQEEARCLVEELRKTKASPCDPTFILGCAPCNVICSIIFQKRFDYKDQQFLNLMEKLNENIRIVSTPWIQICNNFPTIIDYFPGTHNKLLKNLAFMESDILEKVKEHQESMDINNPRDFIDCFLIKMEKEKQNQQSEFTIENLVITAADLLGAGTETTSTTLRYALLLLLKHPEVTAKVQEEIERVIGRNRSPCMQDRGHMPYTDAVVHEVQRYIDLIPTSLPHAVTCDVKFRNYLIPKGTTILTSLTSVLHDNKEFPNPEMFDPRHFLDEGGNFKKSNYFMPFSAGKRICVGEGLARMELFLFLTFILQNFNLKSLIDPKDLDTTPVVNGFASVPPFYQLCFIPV
- Assay notes: Reversible inhibition of recombinant human CYP2C19 by fluorescence-based assay
Property: IC50

Give the measured IC50 for `C[C@]1(c2cc(NC(=O)c3ccc(C#N)cn3)ccc2F)N=C(N)CO[C@H]1C(F)(F)F`
> 30 µM

====

- Assay notes: Volume of distribution at steady state in Swiss mouse at 2.5 mg/kg, iv administered as bolus dose by LC-MS/MS analysis
- Assay type: ADME, organism-based
- Conditions used: in vivo, read-out: Vdss
Property: Vd
Respond with the figure and its unit, in that order.

Fill in Vd for record `C[C@]1(c2cc(NC(=O)c3ccc(C#N)cn3)ccc2F)N=C(N)CO[C@H]1C(F)(F)F`
7.6 L/kg

====

- Assay notes: AUC (0 to 24 hrs) in male Sprague-Dawley rat at 75 mg/kg, po measured after 1 month repeated dosing by LC-MS/MS analysis
- Type: ADME, organism-based
- Design: time < 24 hr, dose 75 mg/kg, route oral
- Conditions used: in vivo
Property: AUC at 24 h (ng·h/mL)
Dear colleague, please return just the value in ng·h/mL, with no unit written.

Note down AUC at 24 h recorded for `C[C@]1(c2cc(NC(=O)c3ccc(C#N)cn3)ccc2F)N=C(N)CO[C@H]1C(F)(F)F`
13700

====

Kindly supply the reported Kp uu at 4 h values for the records listed here.
- Assay notes: Ratio of total unbound drug level in brain to plasma of in CD1 Swiss specific pathogen free mouse at 10 mg/kg, po after 4 hrs
- Assay type: ADME, organism-based
- Conditions used: read-out: K(p,uu,brain)

Identify Kp uu at 4 h associated with the compound `COc1cnc(C(=O)Nc2ccc(F)c([C@@]3(C)N=C(N)CO[C@@H]3F)c2)cn1`
0.09

Provide one value: measured Kp uu at 4 h of `COc1cnc(C(=O)Nc2ccc(F)c([C@@]3(C)N=C(N)CO[C@H]3C(F)F)c2)cn1`
0.07

Specify measured Kp uu at 4 h for `COc1cnc(C(=O)Nc2ccc(F)c([C@@]3(C)N=C(N)CO[C@H]3C(F)(F)F)c2)cn1` .
0.23

Please supply the value of reported Kp uu at 4 h for the item `COc1cnc(C(=O)Nc2ccc(F)c([C@@]3(C)N=C(N)COC3=C(F)F)c2)cn1`
0.11
